Provide the reported activity change vs negative control of each item.
# system_tested: Potassium voltage-gated channel subfamily KQT member 2 (Rattus norvegicus) (UniProt O88943)
# Sequence (O88943 whole entry, looked up): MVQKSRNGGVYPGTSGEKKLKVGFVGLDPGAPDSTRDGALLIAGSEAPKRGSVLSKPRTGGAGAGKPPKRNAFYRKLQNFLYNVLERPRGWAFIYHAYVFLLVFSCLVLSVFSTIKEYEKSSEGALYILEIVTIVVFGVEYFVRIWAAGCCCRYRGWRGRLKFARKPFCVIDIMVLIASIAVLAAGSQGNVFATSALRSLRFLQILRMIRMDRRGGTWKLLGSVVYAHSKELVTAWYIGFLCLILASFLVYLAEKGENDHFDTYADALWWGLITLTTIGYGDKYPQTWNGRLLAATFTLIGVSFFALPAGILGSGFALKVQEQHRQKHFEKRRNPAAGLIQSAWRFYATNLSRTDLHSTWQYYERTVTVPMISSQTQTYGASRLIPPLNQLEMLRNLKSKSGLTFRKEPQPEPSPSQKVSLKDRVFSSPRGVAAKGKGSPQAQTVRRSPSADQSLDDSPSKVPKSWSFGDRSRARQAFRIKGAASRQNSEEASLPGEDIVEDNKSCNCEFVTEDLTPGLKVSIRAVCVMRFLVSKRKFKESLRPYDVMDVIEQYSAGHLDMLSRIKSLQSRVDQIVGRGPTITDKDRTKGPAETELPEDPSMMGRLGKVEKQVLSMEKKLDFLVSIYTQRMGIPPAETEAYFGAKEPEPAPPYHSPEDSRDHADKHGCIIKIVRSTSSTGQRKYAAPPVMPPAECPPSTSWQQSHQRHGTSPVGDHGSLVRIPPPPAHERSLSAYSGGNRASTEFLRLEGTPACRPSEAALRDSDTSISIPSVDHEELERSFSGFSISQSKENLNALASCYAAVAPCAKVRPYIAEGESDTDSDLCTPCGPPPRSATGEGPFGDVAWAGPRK
# experiment_description: KCNQ2 blockade in CHO cells – cell-based, FluxOR thallium flux, counter-screen for hERG block protector project, confirmation (AID 1946)
# test_context: FluxOR thallium flux fluorescence, at 10 µM, active compounds read low, zero marks the 3-SD hit cutoff
About 180 (7.5%) of roughly 2,400 compounds were called active. This excerpt belongs to a sample that is enriched for actives.

molecule	measured_quantity	value_measured
Cc1c(Cl)cccc1NC(=S)N=Nc1c(O)n(CN2CCOCC2)c2ccccc12	activity change vs negative control	28.6% (inactive)
CCOc1ccc(NC(=S)NS(=O)(=O)c2cc(Br)ccc2OCC)cc1	activity change vs negative control	50.4% (inactive)
CC(/C=C1\SC(=S)N(NS(=O)(=O)c2ccc(C)cc2)C1=O)=C\c1ccccc1	activity change vs negative control	32.4% (inactive)

Provide each entry's activity change vs negative control from the list below.
1. Cn1ncc2c(NNC(=O)Cc3ccccc3)ncnc21
2. Nc1nonc1-n1nnc(C(=O)N/N=C/c2cccc(Cl)c2Cl)c1CN1CCCC1
3. Cn1ncc2c(O/N=C(\N)c3ccc(C(F)(F)F)cc3)ncnc21
4. CCN(Cc1ccccc1)C(=S)NC(=O)c1ccccc1Br
5. CCCOc1ccc(-c2c(C(=O)N/N=C/c3ccccc3OCC)nnn2-c2nonc2N)cc1
6. Cn1ncc2c(NNC(=O)c3ccc(O)cc3)ncnc21

Result block:
15.1% (inactive)
5.3% (inactive)
7.4% (inactive)
96.1% (inactive)
11.7% (inactive)
-3.1% (active)

Respectfully, I request activity change vs negative control for each entry included below.
1. COc1cccc(C(=O)NNC(=O)C(=O)Nc2ccc(C)c(Cl)c2)c1
2. C=CCSC1=C(C#N)C(c2ccccc2)CC(=O)N1 (stereo unspecified)

Result block:
98.2% (inactive)
-8.8% (active)
